Values from the supplement of paper PMC11246515

assay: total protein half-life in vivo (active degradation + dilution); higher = more stable protein; details: wild type E. coli NCM3722; growth: N-lim chemostat; doubling time 6 h
As shown below, each of these sequences has a reported total protein half-life in vivo value.
Hi! Could you send only the number? It should be in h, unit omitted.

RESIDUE_CODES	MEASUREMENT_NAME	QUANTITY_UNIT	OBSERVED_RESULT
MSLTLTLTGTGGAQGVPAWGCECAACARARRSPQYRRQPCSGVVKFNDAITLIDAGLHDLADRWSPGSFQQFLLTHYHMDHVQGLFPLRWGVGDPIPVYGPPDEQGCDDLFKHPGLLDFSHTVEPFVVFDLQGLQVTPLPLNHSKLTFGYLLETAHSRVAWLSDTAGLPEKTLKFLRNNQPQVMVMDCSHPPRADAPRNHCDLNTVLALNQVIRSPRVILTHISHQFDAWLMENALPSGFEVGFDGMEIGVA	total protein half-life in vivo	h	4.3
MRLDKFIAQQLGVSRAIAGREIRGNRVTVDGEIVRNAAFKLLPEHDVAYDGNPLAQQHGPRYFMLNKPQGYVCSTDDPDHPTVLYFLDEPVAWKLHAAGRLDIDTTGLVLMTDDGQWSHRITSPRHHCEKTYLVTLESPVADDTAEQFAKGVQLHNEKDLTKPAVLEVITPTQVRLTISEGRYHQVKRMFAAVGNHVVELHRERIGGITLDADLAPGEYRPLTEEEIASVV [P0AA43]	total protein half-life in vivo	h	3.57

Please turn your attention to the following entry.
Ask: What value of measured total protein half-life in vivo is listed for MSHLKDPTTQYYTGEYPKQKQPTPGIQAKMTPVPDCGEKTYVGSGRLKDRKALVTGGDSGIGRAAAIAYAREGADVAISYLPVEEEDAQDVKKIIEECGRKAVLLPGDLSDEKFARSLVHEAHKALGGLDIMALVAGKQVAIPDIADLTSEQFQKTFAINVFALFWLTQEAIPLLPKGASIITTSSIQAYQPSPHLLDYAATKAAILNYSRGLAKQVAEKGIRVNIVAPGPIWTALQISGGQTQDKIPQFGQQTPMKRAGQPAELAPVYVYLASQESSYVTAEVHGVCGGEHLG [P0AG84] ?
Reply: 5.32
